Cited source for all entries: PubChem BioAssay

Property: aptamer binding inhibition; scope: individual molecules
molecular target: Beta-adrenergic receptor kinase 1 (Homo sapiens); experiment: GRK2 binders displacing RNA aptamer, biochemical, validation, human GRK2, bead flow cytometry (AID 488806); conditions: bead-bound GRK2, FAM-aptamer displacement, at 10 µM, stronger effect = higher value
Activity calls are given as the source filed them.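 Rule for the calls: active = aptamer binding inhibition above 30%, about 3 SD of noise from non-fluorescent compounds; inactive = inhibition at or below 30%.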
observed.property: aptamer binding inhibition

1. CC(=O)N1N=C(c2cccs2)CC1c1ccc(C)o1 (stereo unspecified)    0% (inactive)
2. COCCOC(=O)c1c(C)oc2ccc(OCc3cc(C(=O)OC)oc3C)cc12    0% (inactive)
3. C/C(=N/N1CCN(Cc2cccc3ccccc23)CC1)c1cccnc1    1% (inactive)
4. Cc1nc(C(=O)Nc2ccccc2Cl)cc2c1[nH]c1ccccc12    1% (inactive)
5. C[C@H](NC(=O)OC(C)(C)C)C(=O)NCC1CCC(C(=O)O)CC1 (stereo partly specified)    6% (inactive)
6. COc1ccc(OC)c(-n2c(Cn3c(-c4ccccn4)nc4ccccc43)n[nH]c2=S)c1    1% (inactive)
7. OC(CCCN1CCCCC1)(c1ccccc1)c1ccccc1    -3% (inactive)
8. COc1cc2c(cc1O)CC[C@@H]1[C@@H]2CC[C@]2(C)[C@@H](O)CC[C@@H]12    -7% (inactive)
9. Nc1nc2c(ncn2COC(CO)CO)c(=O)[nH]1    -6% (inactive)
10. COc1cccc(OC2OC3COC(C)(C)OC3C(O)C2NC(C)=O)c1 (stereo unspecified)    2% (inactive)
11. CC1(C)NC(C(=O)O)Cc2c1[nH]c1ccccc21 (stereo unspecified)    1% (inactive)

###

experiment: modulators of CIT2-GFP expression in yeast, confirmation, S. cerevisiae, GFP fusion, cherry picks, mother/daughter gates (AID 2274); conditions: S. cerevisiae CIT2-GFP strain, flow cytometry, 3 h; measured here: daughter cell gate; at 10 µM; stronger effect = higher value
Property: GFP response, % of DMSO; scope: individual compounds
observed.property: GFP response, % of DMSO (%)

1. CCOC(=O)CCS(=O)(=O)c1nc(-c2ccccc2)cc(C(F)(F)F)n1    106
2. CCc1sc(C(=O)N2CCc3ccccc32)cc1C    85.2
3. CC1CC2=C(CC1/C=N/NC(N)=S)C(C)(C)CCC2 (configuration not stated)    88.4
4. Cc1ccc(Oc2nc(-c3ccccn3)nc3ccccc23)cc1    92
5. COc1cc(/C=C/C(=O)c2c(O)cc(C)oc2=O)cc(OC)c1O    99.2
6. Cc1ccc(NC(=S)c2nc3ccccc3[nH]2)cc1    103
7. Oc1c(CN2CCCCC2)cc(Br)c2cccnc12    104
8. C/C(=N\NC(=O)Cc1ccc([N+](=O)[O-])cc1)c1cccnc1    103
9. Cc1ccsc1/C=N/Nc1ncc(Cl)cc1Cl    101
10. COc1ccc(OC)c(/C=C/C(=O)c2ccc(Cl)cc2)c1    101
11. COc1ccc(N2C(=O)c3cccc4cccc(c34)C2=O)nn1    93.2
12. Clc1ccc(-n2nnnc2Sc2ncnc3sccc23)cc1    105

###

test: RPL19A-GFP modulators, yeast TOR pathway, confirmation, cell-based, S. cerevisiae, flow cytometry, cherry picks, mother/daughter gates (AID 2270); conditions: S. cerevisiae RPL19A-GFP strain, 3 h, measured here: daughter cell gate, at 10 µM, stronger effect = lower value, 100 = same GFP as DMSO wells
observed.property: GFP response vs DMSO (%)

1. Cc1c(NC(=O)/C(C#N)=C/c2c(N3CCCCC3)nc3ccccn3c2=O)c(=O)n(-c2ccccc2)n1C    95.1
2. COc1ccc(C(=O)/C(=C/O)N=Nc2ccc(F)cc2)cc1    97.8
3. C(=N\Nc1ccccn1)/c1c[nH]c2ccccc12    102
4. Cc1ccccc1C(=O)NNC(=S)NC(=O)c1ccc(Cl)cc1Cl    105
5. Cc1cc(-n2nc(C)cc2C)n2ncc(-c3ccccc3)c2n1    101
6. COc1ccc(-c2cc(=O)n(-c3nc4ccccc4[nH]3)[nH]2)cc1    101
7. CCN(CC)N=Nc1[nH]nc2nc(C)cc(C)c12    103
8. CC(C)(C)C(=O)NC(=S)NNC(=O)c1ccc(-c2ccccc2)cc1    84.5
9. CCc1ccc(C2CC(c3ccco3)=NN2S(C)(=O)=O)cc1 (stereo unspecified)    108
10. Cc1cccc(/C=C/c2onc(C)c2[N+](=O)[O-])n1    99.5
11. O=c1cnnc(SCc2ccc([N+](=O)[O-])cc2)[nH]1    99.1

###

test: AGP1-GFP expression modulators, hit retest, confirmation, cell-based, flow cytometry, S. cerevisiae, cherry picks (AID 2273);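 note: median GFP channel fluorescence over the whole cell population gate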; conditions: S. cerevisiae AGP1-GFP strain, 3 h, at 10 µM
observed.property: GFP response, % of DMSO (%)

1. N#C/C(=C\c1c(N2CCC(C(N)=O)CC2)nc2ccccn2c1=O)C(=O)NCc1ccco1    99.3
2. COc1ccc(CNC(=O)c2c(O)c3ccccc3n(C)c2=O)cc1OC    99.1
3. COc1cccc(N=Nc2ccc(O)c3ncccc23)c1    91.3
4. CC(C)c1nnc(SCC(=O)N2CCc3ccccc32)n1C    97.6
5. CCOc1ccccc1NC(=O)c1nc(S(=O)(=O)Cc2cccc(C)c2)ncc1Cl    101
6. CCN(Cc1ccccc1)S(=O)(=O)c1ccc(C(=O)Nc2nnc(-c3ccccc3OC)o2)cc1    96.4
7. CCOc1cc(/C=C2\C(=N)N3N=C(S(=O)(=O)CC)SC3=NC2=O)ccc1OC(=O)c1ccco1    100
8. O=S(=O)(CCN(CCS(=O)(=O)C(F)(F)F)CC1CCCO1)C(F)(F)F (configuration not stated)    94.5
9. O=C(Cn1cc(/C=C\[N+](=O)[O-])c2ccccc21)Nc1ccccc1    94.7
10. Cc1c(NC(=O)/C(C#N)=C/c2c(N3CCCCC3)nc3ccccn3c2=O)c(=O)n(-c2ccccc2)n1C    109
11. N#C/C(=C/c1ccc(N2CCOCC2)o1)c1ccc(Cl)cc1    95.8
12. Cc1ccc(-n2ncc(C#N)c2/N=C/N(C)C)cc1    94.2
13. Cc1ccn2c(NC3CCCCC3)c(C(C)C)nc2c1    100
14. COc1ccccc1OC(C)C(=O)Nc1ccccc1C(=O)NCC1CCCO1 (configuration not stated)    103
15. CCOC(=O)C(=Cc1ccc(F)cc1)C(=O)OCC    96.7
16. Cc1cc(C)c(C(=O)COC(=O)c2ccc([N+](=O)[O-])o2)cc1C    105
17. O=C1C=C(c2ccc(Cl)cc2)C(=O)N1Nc1ccccc1    102
18. CCOC(=O)Cc1csc(NC(=O)c2sc3nc4ccc(C)cc4cc3c2N)n1    96.7
19. CCOc1ccc(Nc2ccc(C(=O)O)cc2[N+](=O)[O-])cc1    97.8
20. CCOc1ccc(C(Nc2cccnc2)c2cc(Cl)c3cccnc3c2O)cc1 (configuration not stated)    93.9
21. Cc1cccc(CS(=O)(=O)c2ncc(Cl)c(C(=O)Nc3c(C)cccc3C)n2)c1    99.4
22. CC(C)(C)c1ccc(C(=O)N/N=C/c2cccc(Cl)c2)cc1    97

###

experiment: LAP4-GFP expression modulators in yeast, confirmation, cell-based, cherry picks, flow cytometry, mother/daughter gates (AID 2271);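 note: ratio of sample to DMSO plate mean so 100% equals DMSO level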; details: S. cerevisiae LAP4-GFP strain, 3 h, measured here: daughter cell gate response, at 10 µM, stronger effect = higher value, 100 means same as DMSO control
Property: GFP response relative to DMSO; scope: individual compounds
observed.property: GFP response relative to DMSO (%)

1. Cc1cccc(CS(=O)(=O)c2ncc(Cl)c(C(=O)Nc3c(C)cccc3C)n2)c1    101
2. CC1CN(c2nnnn2-c2ccccc2)CC(C)O1 (stereo not given)    101
3. COc1ccc(S(=O)(=O)NCC(=O)N(CC(=O)NCc2ccco2)Cc2ccc(F)cc2)cc1    99.1
4. Cc1[nH]n(-c2ccccc2)c(=O)c1C(c1ccccc1[N+](=O)[O-])C(C#N)C#N (stereo not given)    168
5. CCOc1ccccc1/C=C/C(=O)c1ccc(Cl)cc1    99.2

###

test system: anti-desmoglein-3 scFv antibody binding to human DSG3; experiment: inhibitors of anti-DSG3 scFv binding to DSG3, pilot screen, biochemical, validation compound set, bead-based, flow cytometry (AID 588368); conditions: Protein G beads, DSG3-Fc, scFv-GFP binding, at 10 µM;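 note: signal is the median channel fluorescence of bead-bound GFP antibody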
Calls of active or inactive are those of the source.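 How the source made its calls: active means binding below the plate cutoff, the plate median minus 3 SD, with a reading above zero; inconclusive means below the plate cutoff but reading exactly zero; inactive means the rest.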
Possible outcomes: active, inactive

1. COc1ccc(N2C(=O)C3CCCN3C2=O)cc1 (stereo unspecified)    inactive
2. C=CCc1cccc2cc(C(=O)Nc3ccc(CC(=O)O)cc3)c(=O)oc12    inactive
3. CC(=O)/C=C/c1ccc(C)o1    inactive
4. COc1cccc(N2CC(O)=C(c3nc4ccccc4c(=O)[nH]3)C2=N)c1    inactive
5. COc1ccc(CCNC(=O)c2c(O)c3c([nH]c2=O)CCCC3)cc1    active
6. COc1ccc(CN(CCC(c2ccc(F)cc2)C2CCOC(C)(C)C2)C(=O)c2ccco2)cc1 (stereo unspecified)    inactive
7. O=c1c(-c2ccc3c(c2)OCCO3)coc2cc(OC3OC(CO)C(O)C(O)C3O)ccc12 (stereo unspecified)    inactive
8. Cc1ncc([N+](=O)[O-])n1CCO    inactive
9. CC(=O)[C@@]1(O)CC[C@H]2[C@@H]3CCC4=CC(=O)CC[C@]4(C)[C@H]3CC[C@@]21C    inactive
10. Cc1ccc2c(c1)OC(=O)CC2c1ccccc1 (stereo unspecified)    inactive
11. CCc1cc2c(=O)c(-c3ccc(F)cc3)c(C)oc2cc1OCC(=O)O    inactive
